# TARGET: D1 (Homo sapiens, UniProt P21728)
# Sequence (P21728 whole entry): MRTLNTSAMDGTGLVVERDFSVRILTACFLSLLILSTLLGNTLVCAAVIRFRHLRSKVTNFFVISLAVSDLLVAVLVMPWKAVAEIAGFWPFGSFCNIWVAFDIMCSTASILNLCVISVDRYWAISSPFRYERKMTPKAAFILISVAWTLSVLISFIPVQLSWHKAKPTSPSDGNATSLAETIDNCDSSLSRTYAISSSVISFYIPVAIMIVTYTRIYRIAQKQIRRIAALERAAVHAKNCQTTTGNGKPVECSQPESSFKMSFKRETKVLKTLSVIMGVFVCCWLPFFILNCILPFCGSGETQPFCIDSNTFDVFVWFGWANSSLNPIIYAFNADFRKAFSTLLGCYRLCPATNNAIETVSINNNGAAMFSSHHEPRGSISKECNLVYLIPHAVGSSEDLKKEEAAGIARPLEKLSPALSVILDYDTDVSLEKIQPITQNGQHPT
# ASSAY_TEXT: Radioligand binding, dopamine D1
# CONDITION_SUMMARY: Table 4; read-out: Binding affinity, IC50 (nM) D1
Rule: IC50 below 8000 nM gives Y. Equal to or above 8000 nM gives N.

COMPOUND: CC1(c2ccc(O)cc2)C(=O)c2c(N3CCNCC3)cc(Cl)cc2N(Cc2ccc3ccccc3c2)C1=O (stereo not shown) [Example 40]
LABEL: Y
//
COMPOUND: CC1(c2ccc(O)cc2)C(=O)c2c(N3CCNCC3)cc(Cl)cc2N(Cc2ccccc2Br)C1=O (stereo not shown) [Example 36]
LABEL: Y
//
COMPOUND: COc1ccc(C2(C)C(=O)c3c(N4CCNCC4)cc(Cl)cc3N(Cc3cccnc3)C2=O)cc1 (stereo not shown) [Example 37]
LABEL: Y
//
COMPOUND: CC1(c2ccc(Cl)cc2)C(=O)c2c(N3CCNCC3)cc(Cl)cc2N(Cc2ccccc2)C1=O (stereo not shown) [Example 19]
LABEL: Y
//
COMPOUND: CN1CCN(c2cc(Cl)cc3c2C(=O)C(C)(c2ccc(O)cc2)C(=O)N3Cc2ccccc2)CC1 (stereo not shown) [Example 2]
LABEL: Y
//
COMPOUND: COc1ccc(C2(C)C(=O)c3c(N4CCN(C)CC4)cc(Cl)cc3N(Cc3cccc(N)c3)C2=O)cc1 (stereo not shown) [Example 9]
LABEL: N
//
COMPOUND: CC1(c2ccc(O)cc2)C(=O)c2c(N3CCNCC3)cc(Cl)cc2N(Cc2cccnc2)C1=O (stereo not shown) [Example 38]
LABEL: N
//
COMPOUND: COc1ccc(CN2C(=O)C(C)(c3ccc(OC)cc3)C(=O)c3c(N4CCNCC4)cc(Cl)cc32)cc1 (stereo not shown) [Example 31]
LABEL: Y
//
COMPOUND: COc1ccc(C2(C)C(=O)c3c(N4CCNCC4)cc(Cl)cc3N(Cc3ccccc3)C2=O)cc1 (racemic) [Example 13]
LABEL: Y
//
COMPOUND: CC1(c2ccc(O)cc2)C(=O)c2c(N3CCNCC3)cc(Cl)cc2N(Cc2cccc(O)c2)C1=O (stereo not shown) [Example 28]
LABEL: N

Reference source: patent US20080275058A1
